# System: HCT-15
# assay_info: Antiproliferative activity against human HCT-15 cells assessed as reduction in cell viability after 48 hrs by Ez-cytoX based microplate reader method
# Assay type: functional
# condition_set: HCT-15, 48 h
pIC50: −log10 of the molar value.

# smiles, target_under_test, sign, pIC50
records = [
    ("Nc1ccc2c(c1)CCc1c(-c3ccc(C(F)(F)F)cc3)cc(-c3ccccc3O)nc1-2", "HCT-15", "<", 4.30),
    ("Nc1ccc2c(c1)CCc1c(-c3cccc(C(F)(F)F)c3)cc(-c3ccc(O)cc3)nc1-2", "HCT-15", "=", 5.70),
    ("Nc1ccc2c(c1)CCc1c(-c3ccccc3)cc(-c3ccccc3O)nc1-2", "HCT-15", "=", 5.46),
    ("Nc1ccc2c(c1)CCc1c(-c3ccc(OC(F)(F)F)cc3)cc(-c3ccc(O)cc3)nc1-2", "HCT-15", "=", 5.69),
    ("Nc1ccc2c(c1)CCc1c(-c3ccccc3OC(F)(F)F)cc(-c3ccc(O)cc3)nc1-2", "HCT-15", "=", 5.53),
    ("Nc1ccc2c(c1)CCc1c(-c3ccccc3OC(F)(F)F)cc(-c3cccc(O)c3)nc1-2", "HCT-15", "=", 5.25),
    ("Nc1ccc2c(c1)CCc1c(-c3cccc(C(F)(F)F)c3)cc(-c3cccc(O)c3)nc1-2", "HCT-15", "=", 5.61),
]

* * *

# Test system: HCT-15
# assay_info: Antiproliferative activity against human HCT-15 cells assessed as reduction in cell viability after 48 hrs by Ez-cytoX based microplate reader method
# Format: functional
# condition_set: HCT-15, 48 h
Where a name gives a salt, the structure may show the parent alone.
observation_type: IC50 (µM)

# compound, observation_type, measured_value
data = [
    ("COc1cccc2c1C(=O)c1c(O)c3c(c(O)c1C2=O)C[C@@](O)(C(=O)CO)C[C@@H]3O[C@H]1C[C@H](N)[C@H](O)[C@H](C)O1 [DOXORUBICIN HYDROCHLORIDE]", "IC50", 1.89),
    ("Nc1ccc2c(c1)CCc1c(-c3cccc(C(F)(F)F)c3)cc(-c3ccccc3O)nc1-2", "IC50", 2.29),
    ("Nc1ccc2c(c1)CCc1c(-c3ccc(OC(F)(F)F)cc3)cc(-c3cccc(O)c3)nc1-2", "IC50", 2.71),
    ("Nc1ccc2c(c1)CCc1c(-c3ccccc3OC(F)(F)F)cc(-c3ccccc3O)nc1-2", "IC50", 2.86),
]

* * *

# target_under_test: DNA topoisomerase 2-alpha (Homo sapiens)
# Sequence (P11388 whole entry): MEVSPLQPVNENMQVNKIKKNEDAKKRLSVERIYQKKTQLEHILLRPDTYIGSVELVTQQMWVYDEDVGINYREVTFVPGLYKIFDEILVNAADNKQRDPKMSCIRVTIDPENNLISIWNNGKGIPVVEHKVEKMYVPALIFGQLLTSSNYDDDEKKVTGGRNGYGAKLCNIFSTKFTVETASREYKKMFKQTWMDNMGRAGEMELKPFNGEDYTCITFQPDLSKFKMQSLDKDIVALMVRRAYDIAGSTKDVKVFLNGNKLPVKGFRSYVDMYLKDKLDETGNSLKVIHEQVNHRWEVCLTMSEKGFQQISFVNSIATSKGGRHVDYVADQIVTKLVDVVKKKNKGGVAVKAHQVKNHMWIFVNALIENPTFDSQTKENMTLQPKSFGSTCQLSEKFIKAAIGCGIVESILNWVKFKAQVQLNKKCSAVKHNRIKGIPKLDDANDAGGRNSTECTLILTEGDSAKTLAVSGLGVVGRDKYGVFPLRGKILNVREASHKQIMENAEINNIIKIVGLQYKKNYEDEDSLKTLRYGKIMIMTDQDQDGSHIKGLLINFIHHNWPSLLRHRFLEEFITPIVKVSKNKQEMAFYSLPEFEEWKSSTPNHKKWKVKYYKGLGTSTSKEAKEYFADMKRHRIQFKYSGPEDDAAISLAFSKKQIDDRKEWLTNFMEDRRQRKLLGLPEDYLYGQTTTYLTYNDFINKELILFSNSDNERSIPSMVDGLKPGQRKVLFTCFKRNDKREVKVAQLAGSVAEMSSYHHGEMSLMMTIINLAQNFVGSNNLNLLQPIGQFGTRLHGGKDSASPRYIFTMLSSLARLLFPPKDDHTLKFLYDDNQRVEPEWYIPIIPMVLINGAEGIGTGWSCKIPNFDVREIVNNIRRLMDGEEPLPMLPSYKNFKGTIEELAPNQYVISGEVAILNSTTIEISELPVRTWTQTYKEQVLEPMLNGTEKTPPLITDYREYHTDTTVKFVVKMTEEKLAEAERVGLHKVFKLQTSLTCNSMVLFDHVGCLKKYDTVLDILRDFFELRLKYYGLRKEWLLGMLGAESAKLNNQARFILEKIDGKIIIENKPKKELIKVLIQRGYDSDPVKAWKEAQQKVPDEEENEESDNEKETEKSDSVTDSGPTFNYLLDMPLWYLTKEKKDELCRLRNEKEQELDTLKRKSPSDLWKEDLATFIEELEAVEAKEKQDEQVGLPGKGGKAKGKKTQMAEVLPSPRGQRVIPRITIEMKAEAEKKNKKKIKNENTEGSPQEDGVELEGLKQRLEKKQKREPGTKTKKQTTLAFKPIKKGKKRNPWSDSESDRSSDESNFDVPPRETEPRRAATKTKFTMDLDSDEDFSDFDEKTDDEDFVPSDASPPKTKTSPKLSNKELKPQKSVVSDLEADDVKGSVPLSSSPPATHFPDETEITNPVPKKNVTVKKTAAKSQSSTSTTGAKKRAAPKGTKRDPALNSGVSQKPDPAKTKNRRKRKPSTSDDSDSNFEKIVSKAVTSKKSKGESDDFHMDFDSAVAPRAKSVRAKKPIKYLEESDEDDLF
# assay_info: Inhibition of human topoisomerase 2 alpha mediated supercoiled pBR322 DNA relaxation at 100 uM by ethidium bromide staining based agarose gel electrophoresis relative to control
We use 3% as the dividing line for inhibition: on or above the line is MET, below is NOT MET.

# smiles, category_label
rows = [
    ("Nc1ccc2c(c1)CCc1c(-c3ccc(C(F)(F)F)cc3)cc(-c3ccccc3O)nc1-2", "MET"),
    ("Nc1ccc2c(c1)CCc1c(-c3ccccc3)cc(-c3ccccc3O)nc1-2", "NOT MET"),
    ("Nc1ccc2c(c1)CCc1c(-c3ccccc3OC(F)(F)F)cc(-c3cccc(O)c3)nc1-2", "MET"),
    ("Nc1ccc2c(c1)CCc1c(-c3cccc(F)c3)cc(-c3cccc(O)c3)nc1-2", "MET"),
    ("Nc1ccc2c(c1)CCc1c(-c3ccccc3C(F)(F)F)cc(-c3ccccc3O)nc1-2", "MET"),
    ("Nc1ccc2c(c1)CCc1c(-c3cccc(OC(F)(F)F)c3)cc(-c3ccc(O)cc3)nc1-2", "MET"),
    ("Nc1ccc2c(c1)CCc1c(-c3ccccc3F)cc(-c3ccccc3O)nc1-2", "NOT MET"),
    ("Nc1ccc2c(c1)CCc1c(-c3cccc(OC(F)(F)F)c3)cc(-c3cccc(O)c3)nc1-2", "MET"),
    ("Nc1ccc2c(c1)CCc1c(-c3ccccc3)cc(-c3cccc(O)c3)nc1-2", "NOT MET"),
    ("Nc1ccc2c(c1)CCc1c(-c3cccc(C(F)(F)F)c3)cc(-c3ccccc3O)nc1-2", "MET"),
]
